The reported measurements were obtained from PubChem BioAssay (NCI).

- protocol_notes: NCI Yeast Anticancer Drug Screen. Data for the bub3 strain (AID 167)
- condition_info: S. cerevisiae bub3 mutant strain, at 3.7 µM, stronger effect = higher value
The panel holds about 79,000 compounds, 15% with a hit somewhere; the sample as a whole holds those more often.
growth inhibition reference
Number in %, nothing else.

Cc1cc(C(C)(C)C)c(OCCCN2CCOCC2)c(C(C)(C)C)c1
-1
Nc1ccc(F)cc1S
-15
CCN(CC)CCOc1cc(C)c2cc(Cc3ccccc3)ccc2n1
1
O=[N+]([O-])c1cc(S(=O)(=O)Nc2ccccc2)ccc1Nc1ccccc1
40
c1ccc2c(c1)sc1c3cnccc3ccc21
15

Kindly review the next compound as well.
Recall and state the measured growth inhibition for "CC(C)(C)C1=CC(=CC=C2C=CN(CCCCCCCCCCCO)C=C2)C=C(C(C)(C)C)C1=O" .
57
